system: YANK1; construct: gene STK32A; settings: concentration: 1 μM, replicates: in singlicate; n = 1;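 note: KINOMEscan kinase panel screen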
endpointLabel: %Inh

{"molecule": "Cc1ccccc1COc1cc(-n2cnc3cc(Cl)ccc32)sc1C(N)=O", "readoutValue": "14%"}
{"molecule": "COc1cc(OC)cc(-c2cc3cnc(N)nc3nc2NC(=O)NC(C)(C)C)c1", "readoutValue": "11%"}
{"molecule": "CCn1c(-c2nonc2N)nc2ccccc21", "readoutValue": "46%"}
{"molecule": "Nc1nc(N)c2nc(-c3ccccc3)[nH]c2n1", "readoutValue": "0%"}
{"molecule": "COc1ccc(Nc2nccc(N3CCC(NS(=O)(=O)c4ccc(NC(C)=O)cc4)C3)n2)cc1 (stereo not shown)", "readoutValue": "8%"}
{"molecule": "O=C1NC(=O)C(c2ccccc2)=C1Nc1cccc(O)c1", "readoutValue": "0%"}
{"molecule": "COc1ccc(-n2cnc3c(N)ncnc32)cc1", "readoutValue": "0%"}
{"molecule": "Fc1cccc(CSc2nnc(-c3ccc4c(c3)CCO4)o2)c1", "readoutValue": "16%"}
{"molecule": "Cc1nnc(-c2ccc(C)c(-c3ccc(C(=O)O)cc3)c2)o1", "readoutValue": "0%"}
{"molecule": "CCCC(=O)Nc1n[nH]c2ncc(-c3cccc4ccccc34)cc12", "readoutValue": "0%"}
{"molecule": "Nc1nccc2scc(-c3ccc4c(c3)CCN4C(=O)Cc3ccccc3)c12", "readoutValue": "10%"}
{"molecule": "COc1cc2ncn(-c3cc(OCc4ccc(S(C)(=O)=O)cc4)c(C(N)=O)s3)c2cc1OC", "readoutValue": "7%"}
{"molecule": "Cc1nn2c(=O)cc(N3CCOCC3)nc2n1Cc1cccc(Cl)c1Cl", "readoutValue": "0%"}
{"molecule": "Nc1ncnc2c1ncn2-c1cccc2ccccc12", "readoutValue": "0%"}
{"molecule": "COC(=O)c1c(-c2ccccc2)c2cc(C)ccc2c(=O)n1Cc1ccccc1", "readoutValue": "0%"}
{"molecule": "O=c1cc(N2CCOCC2)nc2n(Cc3ccc(F)c(Cl)c3)ccn12", "readoutValue": "1%"}
{"molecule": "Nc1ncnc2c1ncn2-c1cccc(F)c1", "readoutValue": "17%"}
{"molecule": "COc1cc2ncn(-c3cc(OCCCc4ccccc4)c(C(N)=O)s3)c2cc1OC", "readoutValue": "0%"}
{"molecule": "Cn1c(=O)c(F)c(Nc2ccc(I)cc2F)c2c(=O)n(OC[C@H](O)CO)cnc21", "readoutValue": "0%"}
{"molecule": "CCC(=O)c1c(-c2ccccc2)c2cc(Cl)ccc2c(=O)n1Cc1cc(S(C)(=O)=O)n(CCC(C)(C)O)n1", "readoutValue": "19%"}
{"molecule": "Cc1cc(Nc2nc(-c3cccc(C)n3)nc3ccccc23)ccn1", "readoutValue": "0%"}
{"molecule": "O=C(NCCNc1ccnc(Nc2ccc(F)cc2)n1)Nc1ccc2c(c1)OCO2", "readoutValue": "0%"}
{"molecule": "O=C(Nc1n[nH]c2nc(-c3ccccc3)c(Cl)cc12)C1CC1", "readoutValue": "17%"}
{"molecule": "COC(=O)c1c(-c2ccccc2)c2cc(Br)ccc2c(=O)n1Cc1ccc(NC(=O)CCC(=O)O)cc1", "readoutValue": "0%"}
{"molecule": "COc1ccc(-c2coc3ccc(-c4nnc(SCc5cccc(C#N)c5)o4)cc23)cc1", "readoutValue": "21%"}
{"molecule": "COc1cccc(C2=C(Nc3cccc(C(=O)O)c3)C(=O)NC2=O)c1", "readoutValue": "12%"}
{"molecule": "CC(C)(C)c1ccc(C(=O)Nc2cn3cc(-c4ccccc4)ccc3n2)cc1", "readoutValue": "0%"}
{"molecule": "CN1C(=O)C(Nc2cc(Cl)c(O)c(Cl)c2)=C(c2ccc(Cl)cc2)C1=O", "readoutValue": "0%"}
{"molecule": "CN1C(=O)C(Nc2ccccc2)=C(c2ccccc2)C1=O", "readoutValue": "0%"}
{"molecule": "Cl.c1ccc(Cn2cnc3cc(Nc4ncnc5ccccc45)ccc32)cc1", "readoutValue": "0%"}
{"molecule": "COc1ccc(-c2cc3c(C)nc(N)nc3n([C@H]3CC[C@H](OCCO)CC3)c2=O)cn1", "readoutValue": "14%"}
{"molecule": "CCc1ccc(-c2ccc3c(c2)-c2nn(C)cc2S(=O)(=O)N3C)cc1", "readoutValue": "0%"}
{"molecule": "CN(C)c1cc(-c2ccc3c(N)n[nH]c3c2)nc(N)n1", "readoutValue": "7%"}
{"molecule": "CCC(=O)c1c(-c2ccccc2)c2cc(Cl)ccc2c(=O)n1Cc1cc(S(C)(=O)=O)n(CC(F)F)n1", "readoutValue": "0%"}
{"molecule": "Nc1ncnc2c1ncn2-c1ccc(Cl)cc1", "readoutValue": "0%"}
{"molecule": "Cc1c(Cn2c(C)nn3c(=O)cc(N4CCO[C@H](C)C4)nc23)cccc1C(F)(F)F", "readoutValue": "11%"}
{"molecule": "COC(=O)c1c(-c2ccccc2)c2cc(Br)ccc2c(=O)n1Cc1ccc(S(C)(=O)=O)cc1", "readoutValue": "0%"}
